These measurements were taken from the supplement of paper PMC10567573.

Would you kindly list protein stability index for each of these variants?
B1: RTP4 (parent)
chain: TYWEHWTSQGQVRMRLFGQRCQKC

Variants of: B1
Experiment Notes: protein stability index of a GFP-peptide fusion (GPS, HEK-293T) (PSI 1-6); higher = more stable;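 note: lentivirally expressed fusions sorted by FACS into six bins by GFP to DsRed ratio, PSI derived from sequencing read proportions per bin multiplied by bin number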
Experimental Parameters: c terminus: a fixed tail appended
// keep it numeric: no unit symbol after the value

Req: Data request, read-out protein stability index, for `T7H`
Resp: 1.96

Req: Data request, read-out protein stability index, for `M14D`
Resp: 2.05

Req: Data request, read-out protein stability index, for `F17D`
Resp: 2.01
